# target-entity: Fab C2
# assay-notes: SPR epitope mapping: binding of epitope I peptide variants to immobilized Fab C2
# Design: species or system mouse
# condition-summary: Fab C2 immobilized on CM5 chip, peptides 125 nM to 5 μM, 25°C
Bridge positions count the residues as written; N and C are the ends. Peptide text beside a SMILES is read from it.
endpoint-name: Kd, binding to Fab C2 (M⁻¹ s⁻¹)
Numbers only; they are read as M⁻¹ s⁻¹.

For CC[C@H](C)[C@@H]1NC(=O)[C@H](CC(C)C)NC(=O)[C@H](CCC(N)=O)NC(=O)[C@@H](NC(=O)[C@H](CCCCN)NC(=O)[C@H](CCCCN)NC(C)=O)CSSC[C@@H](C(N)=O)NC(=O)[C@H]([C@@H](C)CC)NC(=O)[C@H](Cc2c[nH]cn2)NC(=O)[C@H](Cc2c[nH]c3ccccc23)NC(=O)[C@H](CO)NC(=O)CNC(=O)[C@H](C)NC(=O)[C@H](C)NC(=O)[C@H](C)NC1=O [C-epitope I mutant II] (Ac-KKCQLIAAAGSWHIC-NH2; disulfide 3-15; N-terminus and C-terminus assumed) the compound record lists Kd, binding to Fab C2 as 4.73e-05

====

# target-entity: Fab C2
# assay-notes: SPR epitope mapping: binding of epitope I peptide variants to immobilized Fab C2
# Set-up: species or system mouse
# condition-summary: Fab C2 immobilized on CM5 chip, peptides 125 nM to 5 μM, 25°C
Bridge positions count the residues as written; N and C are the ends. Peptide text beside a SMILES is read from it.
Entries annotated with measured Kd, binding to Fab C2
Numbers only; they are read as M⁻¹ s⁻¹.

For CC[C@H](C)[C@@H]1NC(=O)[C@H](CC(C)C)NC(=O)[C@H](CCC(N)=O)NC(=O)[C@@H](NC(=O)[C@H](CCCCN)NC(=O)[C@H](CCCCN)NC(C)=O)CSSC[C@@H](C(N)=O)NC(=O)[C@H](C)NC(=O)[C@H](C)NC(=O)[C@H](C)NC(=O)[C@H](CO)NC(=O)CNC(=O)[C@H](CC(N)=O)NC(=O)[C@H]([C@@H](C)O)NC(=O)[C@H](CC(N)=O)NC1=O [C-epitope I mutant IV] (Ac-KKCQLINTNGSAAAC-NH2; disulfide 3-15; N-terminus and C-terminus assumed) the compound record lists Kd, binding to Fab C2 as 0

For CC[C@H](C)[C@H](NC(=O)[C@H](Cc1c[nH]cn1)NC(=O)[C@H](Cc1c[nH]c2ccccc12)NC(=O)[C@H](CO)NC(=O)CNC(=O)[C@H](CC(N)=O)NC(=O)[C@@H](NC(=O)[C@H](CC(N)=O)NC(=O)[C@@H](NC(=O)[C@H](CC(C)C)NC(=O)[C@H](CCC(N)=O)NC(=O)[C@H](CSC)NC(=O)[C@H](CCCCN)NC(=O)[C@H](CCCCN)NC(C)=O)[C@@H](C)CC)[C@@H](C)O)C(=O)N[C@@H](CSC)C(N)=O [L-epitope I] (Ac-KKC(Me)QLINTNGSWHIC(Me)-NH2; N-terminus and C-terminus assumed) the compound record lists Kd, binding to Fab C2 as 0

For CC[C@H](C)[C@@H]1NC(=O)[C@H](Cc2c[nH]cn2)NC(=O)[C@H](Cc2c[nH]c3ccccc23)NC(=O)[C@H](CO)NC(=O)CNC(=O)[C@H](CC(N)=O)NC(=O)[C@H]([C@@H](C)O)NC(=O)[C@H](CC(N)=O)NC(=O)[C@H](C)NC(=O)[C@H](C)NC(=O)[C@H](C)NC(=O)[C@@H](NC(=O)[C@H](CCCCN)NC(=O)[C@H](CCCCN)NC(C)=O)CSSC[C@@H](C(N)=O)NC1=O [C-epitope I mutant I] (Ac-KKCAAANTNGSWHIC-NH2; disulfide 3-15; N-terminus and C-terminus assumed) the compound record lists Kd, binding to Fab C2 as 0.553

====

Entries annotated with measured Ka, binding to Fab C2
# System: Fab C2
# assay-notes: SPR epitope mapping: binding of epitope I peptide variants to immobilized Fab C2
# Parameters: species or system mouse; unit not given here
# condition-summary: Fab C2 immobilized on CM5 chip, peptides 125 nM to 5 μM, 25°C
# Procedure: All SPR analyses were performed on a Biacore 3000 instrument from GE Healthcare, using CM5 sensor chips and the HBS buffer certified for use with this instrument (20 mM HEPES, 0.15 M NaCl, pH 7.2, 0.005% polysorbate 20), at 25°C. Immobilization was carried out by means of the canonical amine-coupling chemistry using the surface immobilization wizard procedure operating at 5 μl/min. […]
Bridge positions count the residues as written; N and C are the ends. Peptide text beside a SMILES is read from it.
Note: the reply should be a number with no unit written.

molecule: CC[C@H](C)[C@H](NC(=O)[C@H](Cc1c[nH]cn1)NC(=O)[C@H](Cc1c[nH]c2ccccc12)NC(=O)[C@H](CO)NC(=O)CNC(=O)[C@H](CC(N)=O)NC(=O)[C@@H](NC(=O)[C@H](CC(N)=O)NC(=O)[C@@H](NC(=O)[C@H](CC(C)C)NC(=O)[C@H](CCC(N)=O)NC(=O)[C@H](CSC)NC(=O)[C@H](CCCCN)NC(=O)[C@H](CCCCN)NC(C)=O)[C@@H](C)CC)[C@@H](C)O)C(=O)N[C@@H](CSC)C(N)=O [L-epitope I] (Ac-KKC(Me)QLINTNGSWHIC(Me)-NH2; N-terminus and C-terminus assumed)
endpoint-value: 0

For CC[C@H](C)[C@@H]1NC(=O)[C@H](CC(C)C)NC(=O)[C@H](CCC(N)=O)NC(=O)[C@@H](NC(=O)[C@H](CCCCN)NC(=O)[C@H](CCCCN)NC(C)=O)CSSC[C@@H](C(N)=O)NC(=O)[C@H](C)NC(=O)[C@H](C)NC(=O)[C@H](C)NC(=O)[C@H](CO)NC(=O)CNC(=O)[C@H](CC(N)=O)NC(=O)[C@H]([C@@H](C)O)NC(=O)[C@H](CC(N)=O)NC1=O [C-epitope I mutant IV] (Ac-KKCQLINTNGSAAAC-NH2; disulfide 3-15; N-terminus and C-terminus assumed) the molecule record lists Ka, binding to Fab C2 as 0
